# ASSAY_NOTES: binders of probe aFGF10 on microarray, primary screen, stem cell growth factor project, biochemical, small-molecule microarray, fluorescence 635/667 (AID 1071);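 note: score merges 667 nm spot intensity and signal to noise from triplicate slides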
# CONDITION_PARAMETERS: higher = more signal
Hi there, I'd appreciate the recorded composite z-score for every entry that follows.
One number for each entry.

smiles_code=COc1ccc(O[C@H]2C=C[C@@H](c3ccccc3)O[C@@H]2CON=C2c3cc(OC)ccc3O[C@H](c3cccc(OC)c3)[C@H]2O)cc1 outcome_measure="composite z-score" test_value=-0.054

Hey, can you go through the list below and give me composite z-score for every item?
1. CCCNC(=O)OC[C@H]1O[C@H](CCON=C[C@@H](C)[C@H](OCc2ccccc2)C(C)C)C=C[C@@H]1Oc1ccc(OC)cc1
2. CO[C@H]1C[C@@H]2C[C@H](O)CC(CC(=O)O[C@@H](C=CCC(C)C)C[C@@H]3CC[C@H](C)[C@@H](C1)O3)O2
3. CO[C@@H]1C=CCC(=O)N[C@@H](C)C(=O)OC[C@@H](OC)[C@H](C)C=CCC(=O)OC[C@H]1C
4. CCOC(=O)CCN1C(=O)[C@H]2[C@H]3[C@H](O)[C@H](O)CC(=NO[C@@H]4O[C@H](CO)[C@@H](O)[C@H](O)[C@H]4O)[C@H]3CC[C@H]2C1=O
5. COC(=O)[C@H](CCSC)NC(=O)CC=C[C@@H](C)CO
6. CC(C)CON=C1C[C@@H](O)[C@@H](O)[C@@H]2[C@@H]3C(=O)N([C@@H](C)c4ccccc4)C(=O)[C@@H]3CC[C@@H]12

[0.416, 0.365, -0.631, 0.232, 0.708, 0.107]

====

# ASSAY_NOTES: CREB reporter modulators without forskolin, primary screen, cell-based, PC12, CRE-LacZ reporter, unstimulated (AID 1145)
# CONDITION_PARAMETERS: no forskolin, luminescence, 4.5 h, higher = more signal, called active from +8 up or from −8 down
Response key: Y means z-score >= 0.001; N means z-score < 0.001.

Below are worked cases with known answers.
compound="CCOC(=O)[C@H](Cc1ccccc1)NC(=O)CCC1CC(OC(=O)NCc2ccc3c(c2)OCO3)CC2(CCCC(COC(=O)NCCOc3ccccc3)O2)O1 (stereo partly specified)" class=N
compound="CCOC(=O)[C@H](CC(C)C)NC(=O)CCC1CC(OC(=O)NCc2ccc3c(c2)OCO3)CC2(CCCC(COC(=O)NCCOC)O2)O1 (stereo partly specified)" class=Y
compound=C[C@@H](c1ccccc1)N1C(=O)[C@H]2[C@H]3[C@H](O)[C@H](O)CC(=NOC[C@@H](O)COCc4ccco4)[C@H]3CC[C@H]2C1=O class=Y
compound="CC(CCC(=O)OC[C@H]1O[C@H](C#Cc2ccccc2)C=C[C@@H]1Oc1ccc(C)cc1)=NOC(C)CN1CCCCc2nc(C)c(C)cc21 (stereo partly specified)" class=N
compound="O=C1CCCC=C1C(O)COCc1ccccc1 (stereo unspecified)" class=Y

Could you verify whether the entry "CC(C)[C@@H](OCc1ccccc1)[C@H](C)C=NOC[C@@H](O)[C@H]1O[C@@H]2OC(C)(C)O[C@@H]2[C@H]1O" shows z-score of no less than 0.001?
N

Threshold query (z-score >= 0.001) on CCc1cc2c(nc1CC)CCN(CCC(C)=NOC(C)CN1CCCCc3nc(C)c(C)cc31)C2 (stereo unspecified)
Y

Has "OC[C@H]1O[C@H](C#Cc2ccccc2)C=C[C@@H]1O" a recorded z-score greater than or equal to 0.001?
N

Is it the case that CCOC(=O)[C@H](CC(C)C)NC(=O)CCC1CC(OC(=O)NCCc2ccc(F)cc2)CC2(CCCC(COC(=O)NCc3cccc4ccccc34)O2)O1 (stereo partly specified) has z-score reaching or exceeding 0.001?
N

Entry "CON=C(C)CCN1CCCc2nc(C)c(C)cc21" : is its z-score no less than 0.001?
Y

Is z-score at least 0.001? Consider "COc1ccc(O[C@H]2C=C[C@@H](c3ccccc3)O[C@@H]2CON=C(C)CCN2CCCc3nc(C)c(C)cc32)cc1"
Y

# check: z-score of "CCOC(=O)CCN1C(=O)[C@H]2[C@H]3[C@H](O)[C@H](O)CC(=O)[C@@H]3CC[C@H]2C1=O" is greater than or equal to 0.001
Y

Identify whether the reported z-score of the following compound is 0.001 or greater: CC(CCN1CCc2nc(-c3ccccc3)c(-c3ccccc3)cc2C1)=NOC(C)CN1CCCc2nc(C)c(C)cc21 (stereo unspecified)
Y

Is the recorded value of z-score equal to or greater than 0.001 for this compound? COC(=O)CC=C[C@@H](C)[C@@H](C=NOC(C)CN1CCCc2nc(C)c(C)cc21)NS(=O)(=O)c1ccc(C)cc1 (stereo partly specified)
Y

Dear colleague, could you confirm whether "CC(C)=NO[C@@H](C)c1cn([C@H](CO)Cc2ccccc2)nn1" has z-score at or above 0.001?
Y

Answer whether z-score of "CC(CCN1CCCCc2nc(C)c(C)cc21)=NOC[C@@H](O)[C@H]1O[C@@H]2OC(C)(C)O[C@@H]2[C@H]1O" is greater than or equal to 0.001.
N

All values here come from PubChem BioAssay.
